Just for reference, ChEMBL document CHEMBL3244065 is where these values come from.

System: Rattus norvegicus
Test: Toxicity in ip dosed Sprague-Dawley rat assessed as induction of maximum catalepsy
Assay type: organism-based
Settings: in vivo
Property: MED (mg/kg)
Answers are plain numbers, in mg/kg.

Before answering, review these 3 worked examples.
CC(C)[C@@]1(O)CCN2C[C@@H]3c4ccccc4CCc4cccc(c43)[C@H]2C1 [DEXCLAMOL] = 12.5
CC(C)[C@@]1(O)CCN2C[C@@H]3c4ccccc4CCc4c(Cl)ccc(c43)[C@H]2C1.Cl = 50
CC(C)[C@@]1(O)CCN2C[C@@H]3c4ccc(Cl)cc4CCc4cccc(c43)[C@H]2C1.Cl = 12.5

// next item, MED requested
## Task MED for CC(C)[C@@]1(O)CCN2C[C@@H]3c4cccc(Cl)c4CCc4cccc(c43)[C@H]2C1.Cl ?
## Result 100

----------
Test system: Rattus norvegicus
Assay: Neuroleptic activity in ip dosed Sprague-Dawley rat assessed as inhibition of amphetamine-induced stereotyped behaviour administered 15 mins after d-amphetamine challenge
Assay type: functional
Conditions: 0.25 h, read-out: MED
Kindly supply the reported minimal effective dose values for the records listed here.
One number for each entry, in mg/kg.

CC(C)[C@@]1(O)CCN2C[C@@H]3c4cccc(Cl)c4CCc4cccc(c43)[C@H]2C1.Cl = 20

Items follow; give minimal effective dose for each.
1. CC(C)[C@@]1(O)CCN2C[C@@H]3c4ccc(Cl)cc4CCc4cccc(c43)[C@H]2C1.Cl
2. CC(C)[C@@]1(O)CCN2C[C@@H]3c4ccccc4CCc4c(Cl)ccc(c43)[C@H]2C1.Cl
3. CC(C)[C@@]1(O)CCN2C[C@@H]3c4ccccc4CCc4cccc(c43)[C@H]2C1
4. CN1CCN(C2=Nc3cc(Cl)ccc3Nc3ccccc32)CC1

## Result
[1.25, 10, 1.25, 50]

## Task minimal effective dose for OCCN1CCN(C2Cc3cc(Cl)ccc3Sc3ccccc32)CC1 (configuration not stated) ?
## Result 20
